Biological target: T1, recombinant human LAG3 expressed with a C-terminal myc-myc-hexahistidine tag (human, UniProt P18627 29-450)
T1 construct: also called hLAG3-mmh; hLAG3.mmh
T1 sequence (P18627 other isoform, or with tags, fused parts or gaps limits assumed): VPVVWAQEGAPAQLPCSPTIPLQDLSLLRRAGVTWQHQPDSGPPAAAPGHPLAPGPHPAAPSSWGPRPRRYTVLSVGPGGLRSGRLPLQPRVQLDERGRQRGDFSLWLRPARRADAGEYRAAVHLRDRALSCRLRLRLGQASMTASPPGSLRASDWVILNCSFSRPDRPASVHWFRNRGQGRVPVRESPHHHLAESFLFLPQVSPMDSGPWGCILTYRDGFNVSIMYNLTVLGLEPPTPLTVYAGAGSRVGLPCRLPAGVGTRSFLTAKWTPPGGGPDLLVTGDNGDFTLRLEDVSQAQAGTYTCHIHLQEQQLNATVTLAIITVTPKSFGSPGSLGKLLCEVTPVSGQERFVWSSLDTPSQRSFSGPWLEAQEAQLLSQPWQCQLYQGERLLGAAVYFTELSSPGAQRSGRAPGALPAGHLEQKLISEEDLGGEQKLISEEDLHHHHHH
Assay: SPR, mAb captured, 25 C
pKd: −log10 of the molar value.
READOUT NAME: pKd

{"columns": ["BINDER", "READOUT NAME", "VALUE MEASURED"],
 "data": [
  ["H4H17819P (antibody, human IgG4, V domains shown, H4H = human IgG4 Fc with S108P hinge mutation) VH: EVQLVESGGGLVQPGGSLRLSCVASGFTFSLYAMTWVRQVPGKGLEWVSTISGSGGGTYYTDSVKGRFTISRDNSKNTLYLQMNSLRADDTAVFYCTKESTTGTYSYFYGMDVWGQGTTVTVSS VL: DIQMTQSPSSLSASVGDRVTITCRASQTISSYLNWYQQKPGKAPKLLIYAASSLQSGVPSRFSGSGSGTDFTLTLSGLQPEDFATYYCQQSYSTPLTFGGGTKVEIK", "pKd", 9.41],
  ["H4sH14813N (antibody, human IgG4 S228P, kappa, V domains shown, H4sH = modified human IgG4 Fc) VH: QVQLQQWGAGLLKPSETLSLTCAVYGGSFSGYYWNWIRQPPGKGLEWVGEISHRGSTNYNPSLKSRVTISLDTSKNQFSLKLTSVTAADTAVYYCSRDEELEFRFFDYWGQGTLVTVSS VL: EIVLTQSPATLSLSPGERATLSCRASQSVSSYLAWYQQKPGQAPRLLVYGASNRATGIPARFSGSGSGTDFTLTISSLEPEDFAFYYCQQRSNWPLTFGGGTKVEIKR", "pKd", 9.75],
  ["H4H15479P (antibody, human IgG4, V domains shown) VH: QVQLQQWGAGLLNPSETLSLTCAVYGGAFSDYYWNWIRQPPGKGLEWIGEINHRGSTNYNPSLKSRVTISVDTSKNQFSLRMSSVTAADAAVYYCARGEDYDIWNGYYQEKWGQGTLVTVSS VL: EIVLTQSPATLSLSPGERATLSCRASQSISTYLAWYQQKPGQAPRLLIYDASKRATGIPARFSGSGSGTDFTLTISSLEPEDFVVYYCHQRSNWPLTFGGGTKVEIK", "pKd", 10.31],
  ["H4H15483P (antibody, human IgG4, V domains shown, H4H = human IgG4 Fc with S108P hinge mutation) VH: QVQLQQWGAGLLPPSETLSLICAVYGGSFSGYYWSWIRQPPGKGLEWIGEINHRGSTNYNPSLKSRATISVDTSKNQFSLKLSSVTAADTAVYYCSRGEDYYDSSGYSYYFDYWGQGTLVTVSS VL: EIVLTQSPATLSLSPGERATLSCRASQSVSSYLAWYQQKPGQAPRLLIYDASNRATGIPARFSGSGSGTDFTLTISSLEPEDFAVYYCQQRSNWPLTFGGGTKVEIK", "pKd", 8.71]
]}
